- System: MCF7
- Assay Protocol: Antiproliferative activity against human MCF7 cells assessed as inhibition of cell proliferation incubated for 48 hrs by MTT assay
- Type: functional, cell-based
- Particulars: MCF7, 48 h
Quantity: IC50 (nM)

[A] CC1(C)CC[C@]2(C(=O)OCCOC(=O)c3ccc(OCc4ccc(B5OC(C)(C)C(C)(C)O5)cc4)cc3)CC[C@]3(C)[C@H](C(=O)C=C4[C@@]5(C)C=C(C#N)C(=O)C(C)(C)[C@@H]5CC[C@]43C)[C@@H]2C1
[B] CC1(C)CC[C@]2(C(=O)OCCCCCOC(=O)c3ccc(OCc4ccc(B5OC(C)(C)C(C)(C)O5)cc4)cc3)CC[C@]3(C)[C@H](C(=O)C=C4[C@@]5(C)C=C(C#N)C(=O)C(C)(C)[C@@H]5CC[C@]43C)[C@@H]2C1
[C] CC1(C)CC[C@]2(C(=O)OCCc3ccc(OCc4ccc(B5OC(C)(C)C(C)(C)O5)cc4)cc3)CC[C@]3(C)[C@H](C(=O)C=C4[C@@]5(C)C=C(C#N)C(=O)C(C)(C)[C@@H]5CC[C@]43C)[C@@H]2C1
[D] COc1cc(C(=O)OCCCCOC(=O)[C@]23CCC(C)(C)C[C@H]2[C@H]2C(=O)C=C4[C@@]5(C)C=C(C#N)C(=O)C(C)(C)[C@@H]5CC[C@@]4(C)[C@]2(C)CC3)ccc1OCc1ccc(B2OC(C)(C)C(C)(C)O2)cc1
[Q] Highest to lowest IC50: rank the entries shown above. Please reply with the labels ordered as requested. Many thanks.
[A] D, A, B, C
(D: 12900 nM, A: 2900 nM, B: 1600 nM, C: 1000 nM)

[a] COc1ccc(/C=C/CC(=O)OCCCOC(=O)[C@]23CCC(C)(C)C[C@H]2[C@H]2C(=O)C=C4[C@@]5(C)C=C(C#N)C(=O)C(C)(C)[C@@H]5CC[C@@]4(C)[C@]2(C)CC3)cc1OCc1ccc(B2OC(C)(C)C(C)(C)O2)cc1
[b] CC1(C)CC[C@]2(C(=O)OCCCOc3ccc(NC(=O)OCc4ccc(B5OC(C)(C)C(C)(C)O5)cc4)cc3)CC[C@]3(C)[C@H](C(=O)C=C4[C@@]5(C)C=C(C#N)C(=O)C(C)(C)[C@@H]5CC[C@]43C)[C@@H]2C1
[Q] Looking only at measured IC50, which entry is lower, a or b ? Identify your pick by its label.
[A] b

[1] CC1(C)CC[C@]2(C(=O)OCCCCCOc3ccc(NC(=O)OCc4ccc(B5OC(C)(C)C(C)(C)O5)cc4)cc3)CC[C@]3(C)[C@H](C(=O)C=C4[C@@]5(C)C=C(C#N)C(=O)C(C)(C)[C@@H]5CC[C@]43C)[C@@H]2C1
[2] CC1(C)CC[C@]2(C(=O)OCCCOC(=O)Cc3ccc(OCc4ccc(B5OC(C)(C)C(C)(C)O5)cc4)cc3)CC[C@]3(C)[C@H](C(=O)C=C4[C@@]5(C)C=C(C#N)C(=O)C(C)(C)[C@@H]5CC[C@]43C)[C@@H]2C1
[Q] Which value of IC50 is numerically greater: that of 1 or that of 2 ? Identify your pick by its label.
[A] 1

[I] CC1(C)CC[C@]2(C(=O)OCCCCCCOC(=O)c3ccc(OCc4ccc(B5OC(C)(C)C(C)(C)O5)cc4)cc3)CC[C@]3(C)[C@H](C(=O)C=C4[C@@]5(C)C=C(C#N)C(=O)C(C)(C)[C@@H]5CC[C@]43C)[C@@H]2C1
[II] CC1(C)CC[C@]2(C(=O)OCCCOC(=O)c3ccc(OCc4ccc(B5OC(C)(C)C(C)(C)O5)cc4)cc3)CC[C@]3(C)[C@H](C(=O)C=C4[C@@]5(C)C=C(C#N)C(=O)C(C)(C)[C@@H]5CC[C@]43C)[C@@H]2C1
[III] CC1(C)CC[C@]2(C(=O)OCCCOC(=O)C/C=C/c3ccc(OCc4ccc(B5OC(C)(C)C(C)(C)O5)cc4)cc3)CC[C@]3(C)[C@H](C(=O)C=C4[C@@]5(C)C=C(C#N)C(=O)C(C)(C)[C@@H]5CC[C@]43C)[C@@H]2C1
[Q] Rank by IC50 (largest to smallest). Please reply with the labels ordered as requested. Many thanks.
[A] III, I, II
